Tested on: A549
Assay: Cytotoxicity against human A549 cells assessed as cell growth inhibition measured after 72 hrs by CCK8 assay
Type: functional, cell-based
Conditions: A549, 72 h
Reported IC50 values for a set of compounds

- compound: "CC12CC34CC[C@H](OC(=O)c5ccc(NCc6cc(O)ccc6O)cc5)[C@@](C)(CCCOC(=O)c5ccc(NCc6cc(O)ccc6O)cc5)C3C(CC1C4)O2 (some centres not stated)"
  operator: "="
  IC50, µM: 9.6
- compound: "O=C(OC12CC3CC(CC(C3)C1)C2)c1ccc(NCc2cc(O)ccc2O)cc1"
  operator: "="
  IC50, µM: 20.1
- compound: "CC12CC34CC[C@H](O)[C@@](C)(CCCO)C3C(CC1C4)O2 (some centres not stated)"
  operator: "="
  IC50, µM: 35.9
- compound: "O=C(O)c1ccc(NCc2cc(O)ccc2O)cc1"
  operator: ">"
  IC50, µM: 100
- compound: "O=C(NNC(=O)C12CC3CC(CC(C3)C1)C2)c1ccc(NCc2cc(O)ccc2O)cc1"
  operator: ">"
  IC50, µM: 100
- compound: "COC(=O)c1ccc(NCc2cc(O)ccc2O)cc1"
  operator: "="
  IC50, µM: 23.2
- compound: "CC12CC34C=CC(=O)[C@@](C)(CCC(=O)NNC(=O)c5ccc(NCc6cc(O)ccc6O)cc5)C3C(CC1C4)O2 (some centres not stated)"
  operator: ">"
  IC50, µM: 100

---

Readings of half-life for the listed molecules
Experiment: Half life in human serum incubated up to 24 hrs by HPLC analysis
Format: ADME, cell-free
measure_name: half-life (h)

- molecule: "O=C(OC12CC3CC(CC(C3)C1)C2)c1ccc(NCc2cc(O)ccc2O)cc1"
  measure_name: "half-life"
  experimental_value: 12
- molecule: "COC(=O)c1ccc(NCc2cc(O)ccc2O)cc1"
  measure_name: "half-life"
  experimental_value: 3
- molecule: "CC12CC34CC[C@H](O)[C@@](C)(CCCO)C3C(CC1C4)O2 (some centres undefined)"
  measure_name: "half-life"
  experimental_value: 5
- molecule: "CC12CC34CC[C@H](OC(=O)c5ccc(NCc6cc(O)ccc6O)cc5)[C@@](C)(CCCOC(=O)c5ccc(NCc6cc(O)ccc6O)cc5)C3C(CC1C4)O2 (some centres undefined)"
  measure_name: "half-life"
  experimental_value: 12

Source of measurements: ChEMBL document CHEMBL4825724
